biological target: Glycine (Homo sapiens)
Result type: Ki

Compound: C[C@@H](N)C(=O)O [D-Alanine, reference compound]
Result type: Ki
Experimental result: 4.9 µM

###

system: maximal electroshock seizures; test: Maximal electroshock seizure (MES) test, anticonvulsant quantification in mice, i.p.; conditions: mice, i.p.
Property: P.I. MES (TD50/ED50); scope: individual molecules

Molecule: CC(Nc1ccc(Br)cc1)c1ccncc1 (stereo not drawn)
P.I. MES (TD50/ED50): > 3.19
--
Molecule: CC(Nc1cccc(Cl)c1)c1ccncc1 (stereo not drawn)
P.I. MES (TD50/ED50): > 5.24
--
Molecule: Clc1ccc(NCc2ccncc2)cc1
P.I. MES (TD50/ED50): < 3.3
